assay: Metabolic stability in rat liver microsomes assessed as microsomal intrinsic clearance in presence of NADPH cofactor under shaking condition for 10 mins measured after 5 to 60 mins by LC-MS/MS analysis; format: ADME, Microsome; details: time 15-70 min
METRIC NAME: CLint (µL/min/mg)
Reply with just the number (in µL/min/mg).

Requested field: CLint. Item: CCNC(=O)c1noc(-c2cc(-c3ccc(C)cc3)c(O)cc2O)c1-c1ccc(CN2CCOCC2)cc1 45.3

---

test: Metabolic stability in rat liver microsomes assessed as intrinsic clearance in presence of NADPH cofactor under shaking condition for 10 mins measured after 5 to 60 mins by LC-MS/MS analysis; assay type: ADME, Microsome; settings: time 15-70 min
METRIC NAME: CLint (mL/min/kg)
Reply with just the number (in mL/min/kg).

Requested field: CLint. Item: CCNC(=O)c1noc(-c2cc(-c3ccc(C)cc3)c(O)cc2O)c1-c1ccc(CN2CCOCC2)cc1 81.6
